system under test: UniProt:P35968
Sequence (P35968 whole entry): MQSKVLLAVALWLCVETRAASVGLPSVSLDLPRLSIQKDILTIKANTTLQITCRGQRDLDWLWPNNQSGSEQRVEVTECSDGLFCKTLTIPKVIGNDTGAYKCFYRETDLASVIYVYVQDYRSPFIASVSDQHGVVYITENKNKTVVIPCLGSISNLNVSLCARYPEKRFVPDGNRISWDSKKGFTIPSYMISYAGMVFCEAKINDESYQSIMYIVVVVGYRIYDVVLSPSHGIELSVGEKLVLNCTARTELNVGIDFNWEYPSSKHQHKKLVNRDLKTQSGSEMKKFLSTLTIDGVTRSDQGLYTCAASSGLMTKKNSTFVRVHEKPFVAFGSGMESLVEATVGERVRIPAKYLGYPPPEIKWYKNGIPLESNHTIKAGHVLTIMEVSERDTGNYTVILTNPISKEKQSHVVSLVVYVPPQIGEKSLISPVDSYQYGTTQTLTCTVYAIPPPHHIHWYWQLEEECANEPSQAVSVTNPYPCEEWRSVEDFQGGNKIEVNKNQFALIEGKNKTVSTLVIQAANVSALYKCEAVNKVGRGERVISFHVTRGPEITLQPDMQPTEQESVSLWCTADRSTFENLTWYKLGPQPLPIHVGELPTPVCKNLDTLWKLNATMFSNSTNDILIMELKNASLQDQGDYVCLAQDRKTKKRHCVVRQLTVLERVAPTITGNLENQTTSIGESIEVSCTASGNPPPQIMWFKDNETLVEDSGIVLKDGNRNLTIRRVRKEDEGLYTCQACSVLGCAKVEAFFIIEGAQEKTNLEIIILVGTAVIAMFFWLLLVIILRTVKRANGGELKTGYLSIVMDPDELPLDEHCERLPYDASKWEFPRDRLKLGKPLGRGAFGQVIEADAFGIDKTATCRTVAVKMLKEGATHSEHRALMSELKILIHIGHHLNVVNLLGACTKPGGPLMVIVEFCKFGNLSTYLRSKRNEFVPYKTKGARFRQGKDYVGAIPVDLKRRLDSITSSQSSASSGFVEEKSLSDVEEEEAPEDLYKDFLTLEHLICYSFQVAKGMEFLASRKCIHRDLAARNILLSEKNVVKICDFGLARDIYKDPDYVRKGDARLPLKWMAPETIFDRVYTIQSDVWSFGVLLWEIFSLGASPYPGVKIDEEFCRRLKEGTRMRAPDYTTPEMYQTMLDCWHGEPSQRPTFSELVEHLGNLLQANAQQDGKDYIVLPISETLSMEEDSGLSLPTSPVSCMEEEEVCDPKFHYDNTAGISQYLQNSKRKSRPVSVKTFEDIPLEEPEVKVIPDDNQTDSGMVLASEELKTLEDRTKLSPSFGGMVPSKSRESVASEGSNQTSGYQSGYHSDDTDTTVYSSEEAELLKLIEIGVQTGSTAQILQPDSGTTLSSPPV
measurement description: Inhibition of VEGFR2 in human U251 cells preincubated for 60 mins followed by VEGF stimulation and measured after 10 mins by ELISA
property label: pIC50
Kindly note that pIC50 refers to -log10 of the concentration in mol/L and answer with the value alone.

// below: answered molecules
COc1ccc(N(C)c2nc(Cl)nc3ccccc23)cc1 = 7.01
COc1cccc2cc(N(C)c3nc(C)nc4ccccc34)ccc12 = 7.77
COc1ccc2c(c1)CCCN2c1nc(Cl)nc2ccccc12 = 7.26

Given the molecule COc1ccc(N(C)c2nc(C)nc3ccccc23)cc1 , what is its reported pIC50?
8.08

Given the molecule CSc1ccc(N(C)c2nc(C)nc3ccccc23)cc1 , what is its reported pIC50?
7.83

Given the molecule COc1ccc2c(c1)CCCN2c1ncnc2ccccc12 , what is its reported pIC50?
6.95

Given the molecule COc1ccc2c(c1)CCCN2c1nc(C)nc2ccccc12 , what is its reported pIC50?
8.03

###

Below, each of the compounds is paired with its reported Ratio value.
measurement description: Ratio of EC50 for induction of microtubule depolymerization in rat A10 cells to IC50 for antiproliferative activity against human MDA-MB-435 cells
Output: the number by itself.

// below: answered compounds
COc1ccc2c(c1)CCCN2c1ncnc2ccccc12 = 1.9
COc1ccc(N(C)c2nc(C)nc3ccccc23)cc1 = 1.2
COc1cccc2cc(N(C)c3nc(C)nc4ccccc34)ccc12 = 1.2

Next up:
Given the compound COc1ccc(N(C)c2ncnc3ccccc23)cc1 , what is its reported Ratio?
1.2

###

system under test: Epidermal growth factor receptor (Homo sapiens)
Sequence (P00533 whole entry): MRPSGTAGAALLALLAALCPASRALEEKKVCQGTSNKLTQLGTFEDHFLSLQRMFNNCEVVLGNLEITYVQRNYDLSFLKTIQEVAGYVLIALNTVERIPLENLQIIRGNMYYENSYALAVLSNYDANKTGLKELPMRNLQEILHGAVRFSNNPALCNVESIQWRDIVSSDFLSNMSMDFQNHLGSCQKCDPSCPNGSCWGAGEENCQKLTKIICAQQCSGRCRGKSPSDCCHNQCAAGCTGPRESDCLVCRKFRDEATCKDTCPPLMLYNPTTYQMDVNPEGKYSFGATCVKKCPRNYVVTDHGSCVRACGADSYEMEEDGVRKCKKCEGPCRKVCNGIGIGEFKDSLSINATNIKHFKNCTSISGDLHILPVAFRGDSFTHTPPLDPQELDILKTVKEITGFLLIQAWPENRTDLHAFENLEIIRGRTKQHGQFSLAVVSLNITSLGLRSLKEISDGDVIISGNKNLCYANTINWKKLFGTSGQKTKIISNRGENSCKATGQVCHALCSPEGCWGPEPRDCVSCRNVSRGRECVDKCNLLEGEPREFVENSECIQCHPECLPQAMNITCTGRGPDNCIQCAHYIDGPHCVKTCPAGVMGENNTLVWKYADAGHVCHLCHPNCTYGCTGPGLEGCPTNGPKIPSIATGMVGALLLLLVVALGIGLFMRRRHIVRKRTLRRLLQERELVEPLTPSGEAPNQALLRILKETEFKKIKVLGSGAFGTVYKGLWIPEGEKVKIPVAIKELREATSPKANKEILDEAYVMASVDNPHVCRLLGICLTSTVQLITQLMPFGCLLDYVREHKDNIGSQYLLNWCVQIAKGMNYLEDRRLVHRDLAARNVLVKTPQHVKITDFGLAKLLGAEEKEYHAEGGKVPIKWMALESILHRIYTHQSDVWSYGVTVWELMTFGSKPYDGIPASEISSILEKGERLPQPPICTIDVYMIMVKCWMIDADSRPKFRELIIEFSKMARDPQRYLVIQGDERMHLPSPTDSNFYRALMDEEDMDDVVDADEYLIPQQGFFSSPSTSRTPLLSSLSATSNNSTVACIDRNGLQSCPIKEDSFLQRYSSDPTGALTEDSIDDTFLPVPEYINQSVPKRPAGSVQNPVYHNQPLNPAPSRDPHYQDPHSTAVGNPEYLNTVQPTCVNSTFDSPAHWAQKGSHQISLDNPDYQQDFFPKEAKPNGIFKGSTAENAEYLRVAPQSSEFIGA
measurement description: Inhibition of EGFR in human A431 cells preincubated for 60 mins followed by EGF stimulation and measured after 10 mins by ELISA
pIC50: −log10 of the molar value.
Use criterion met when the recorded pIC50 is no lower than 8; use criterion not met when it is lower.

COc1ccc(N(C)c2nc(Cl)nc3ccccc23)cc1 = criterion met
COc1ccc(N(C)c2nc(C)nc3ccccc23)cc1 [VERUBULIN] = criterion met
COc1ccc2c(c1)CCCN2c1ncnc2ccccc12 = criterion not met

For the next question, use this molecule.
Quick check: does COc1ccc2c(c1)CCCN2c1nc(C)nc2ccccc12 have pIC50 greater than or equal to 8?
criterion met

###

Below, each of the compounds is paired with its reported pIC50 value.
system under test: Platelet-derived growth factor receptor beta (Homo sapiens, UniProt P09619)
Sequence (P09619 whole entry): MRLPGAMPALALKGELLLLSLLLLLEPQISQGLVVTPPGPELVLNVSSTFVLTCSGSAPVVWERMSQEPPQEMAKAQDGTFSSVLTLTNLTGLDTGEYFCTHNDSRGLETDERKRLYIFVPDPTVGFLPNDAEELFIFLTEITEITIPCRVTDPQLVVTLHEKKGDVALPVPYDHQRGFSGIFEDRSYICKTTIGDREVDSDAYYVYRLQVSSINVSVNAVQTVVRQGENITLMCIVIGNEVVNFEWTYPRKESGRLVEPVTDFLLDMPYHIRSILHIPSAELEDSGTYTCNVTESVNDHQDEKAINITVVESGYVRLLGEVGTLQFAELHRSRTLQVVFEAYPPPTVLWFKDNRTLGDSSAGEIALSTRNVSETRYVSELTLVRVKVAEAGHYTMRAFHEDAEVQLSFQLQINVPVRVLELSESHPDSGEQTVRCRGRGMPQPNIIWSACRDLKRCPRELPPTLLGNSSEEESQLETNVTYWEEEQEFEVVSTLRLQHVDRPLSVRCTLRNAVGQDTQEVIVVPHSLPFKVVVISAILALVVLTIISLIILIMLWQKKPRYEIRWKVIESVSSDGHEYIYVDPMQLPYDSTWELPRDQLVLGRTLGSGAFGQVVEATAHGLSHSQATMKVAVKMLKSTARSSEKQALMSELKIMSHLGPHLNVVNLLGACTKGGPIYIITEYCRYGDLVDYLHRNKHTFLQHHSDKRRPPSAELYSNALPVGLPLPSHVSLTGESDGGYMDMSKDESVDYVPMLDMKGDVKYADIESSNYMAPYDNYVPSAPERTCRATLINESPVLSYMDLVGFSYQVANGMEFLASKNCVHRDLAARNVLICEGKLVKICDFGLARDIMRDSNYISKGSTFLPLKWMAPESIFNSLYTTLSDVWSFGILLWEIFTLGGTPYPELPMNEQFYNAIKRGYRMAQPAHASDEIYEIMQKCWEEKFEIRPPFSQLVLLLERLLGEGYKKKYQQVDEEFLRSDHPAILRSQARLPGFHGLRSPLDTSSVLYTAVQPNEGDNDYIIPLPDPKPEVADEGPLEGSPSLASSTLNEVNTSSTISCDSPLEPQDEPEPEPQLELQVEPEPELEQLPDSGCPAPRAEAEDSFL
measurement description: Inhibition of PDGFRbeta in human SH-SY5Y cells preincubated for 60 mins followed by PDGF stimulation and measured after 10 mins by ELISA
Kindly note that pIC50 refers to -log10 of the concentration in mol/L and answer with the value alone.

// below: answered compounds
COc1ccc(N(C)c2nc(Cl)nc3ccccc23)cc1 = 7.12
COc1cccc2cc(N(C)c3nc(C)nc4ccccc34)ccc12 = 7.53
COc1ccc2c(c1)CCCN2c1ncnc2ccccc12 = 7.27
COc1ccc2c(c1)CCCN2c1nc(C)nc2ccccc12 = 8.11
COc1ccc2c(c1)CCCN2c1nc(Cl)nc2ccccc12 = 7.09

Given the compound CSc1ccc(N(C)c2nc(C)nc3ccccc23)cc1 , what is its reported pIC50?
6.64

Given the compound COc1ccc(N(C)c2nc(C)nc3ccccc23)cc1 , what is its reported pIC50?
8.25

###

measurement description: Ratio of EC50 for induction of microtubule depolymerization in rat A10 cells to IC50 for antiproliferative activity against human MDA-MB-435 cells
property label: Ratio
Output: the number by itself.

// below: answered compounds
CSc1ccc(N(C)c2ncnc3ccccc23)cc1 = 1.6
COc1cccc2cc(N(C)c3nc(Cl)nc4ccccc34)ccc12 = 1.4
CSc1ccc(N(C)c2nc(Cl)nc3ccccc23)cc1 = 1

Next up:
Given the compound COc1ccc2c(c1)CCCN2c1nc(C)nc2ccccc12 , what is its reported Ratio?
2.7
